Measured values drawn from patent US20210179728A1 for this set.

Reported pKd values for a set of binders
# Measured on: T1, recombinant hSIRPb-His (Antibodies-online, reference ABIN3077231) (human, UniProt Q5TFQ8 30-371)
# T1 construct: also called SIRPb-His (Blitz); not shown: His tag
# Measurement protocol: BLI (Blitz); SIRPb-His on Ni-NTA biosensor, antibody at 20 ug/ml [B, table A]
Reminder that pKd means the negative base-10 logarithm of the concentration expressed in mol/L.

Sample records with pKd:
{"Binder": "HALA (antibody, human IgG4 S228P, kappa, V domains shown, humanized 18D5 variant; also called humanized 18D5 variant HALA) VH: EVQLVQSGAEVKKPGESLRISCKASGYTFTSYWVHWVRQMPGKGLEWIGNIDPSDSDTHYNQKFKDHVTLSVDKSISTAYLQLSSLKASDTAMYYCVRGGTGTMAWFAYWGQGTLVTVSS VL: DVVMTQSPLSLPVTLGQPASISCRSSQSLVHSYGNTYLYWYQQRPGQSPRLLIYRVSNRFSGVPDRFSGSGSGTDFTLKISRVEAEDVGVYFCFQGTHVPYTFGGGTKVEIKR", "Property label": "pKd", "Experimental value": 8.19}
{"Binder": "HFLB (antibody, human IgG4 S228P, kappa, V domains shown, humanized 18D5 variant) VH: EVQLVQSGAEVKKPGESLRISCKASGYSFTSYWVHWVRQMPGKGLEWMGNIDPSDSDTHYSPSFQGHVTLSVDKSISTAYLQLSSLKASDTAMYYCVRGGTGTMAYFAYWGQGTLVTVSS VL: DVVMTQSPLSLPVTLGQPASISCRSSQSLVHSYGNTYLYWFQQRPGQSPRLLIYRVSNRFSGVPDRFSGSGSGTDFTLKISRVEAEDVGVYYCFQGTHVPYTFGGGTKVEIKR", "Property label": "pKd", "Experimental value": 7.59}
{"Binder": "HFLA (antibody, human IgG4 S228P, kappa, V domains shown, humanized 18D5 variant) VH: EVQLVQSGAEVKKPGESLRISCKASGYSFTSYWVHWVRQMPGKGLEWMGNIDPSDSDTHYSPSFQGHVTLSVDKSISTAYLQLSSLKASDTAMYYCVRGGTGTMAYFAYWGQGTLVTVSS VL: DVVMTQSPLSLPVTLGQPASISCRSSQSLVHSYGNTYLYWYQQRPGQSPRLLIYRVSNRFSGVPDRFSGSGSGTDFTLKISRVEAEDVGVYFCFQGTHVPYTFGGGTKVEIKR", "Property label": "pKd", "Experimental value": 7.59}
{"Binder": "Kwar23 (antibody, V domains shown) VH: EVQLQQSGAELVKPGASVKLSCTASGFNIKDYYIHWVQQRTEQGLEWIGRIDPEDGETKYAPKFQDKATITADTSSNTAYLHLSSLTSEDTAVYYCARWGAYWGQGTLVTVSS VL: QIVLTQSPAIMSASPGEKVTLTCSASSSVSSSYLYWYQQKPGSSPKLWIYSTSNLASGVPARFSGSGSGTSYSLTISSMEAEDAASYFCHQWSSYPRTFGAGTKLELK", "Property label": "pKd", "Experimental value": 8.56}

Which pKd reading was recorded for the binder HEFLA (antibody, human IgG4 S228P, kappa, V domains shown, humanized 18D5 variant) VH: EVQLVQSGAEVKKPGESLRISCKASGYSFTSYWVHWVRQMPGKGLEWMGNIDPSDSDTHYSPSFQGHVTLSVDKSISTAYLQLSSLKASDTAMYYCVRGGTGTLAYFAYWGQGTLVTVSS VL: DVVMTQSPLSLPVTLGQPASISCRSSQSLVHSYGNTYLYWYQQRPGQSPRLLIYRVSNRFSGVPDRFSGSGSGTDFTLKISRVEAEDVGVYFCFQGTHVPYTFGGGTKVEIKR ?
7.91
